Task for the reader: assign each of the following compounds its reported Activity.
# targetOrTestSystem: Adenosine receptor A3 (Homo sapiens)
# Sequence (whole entry): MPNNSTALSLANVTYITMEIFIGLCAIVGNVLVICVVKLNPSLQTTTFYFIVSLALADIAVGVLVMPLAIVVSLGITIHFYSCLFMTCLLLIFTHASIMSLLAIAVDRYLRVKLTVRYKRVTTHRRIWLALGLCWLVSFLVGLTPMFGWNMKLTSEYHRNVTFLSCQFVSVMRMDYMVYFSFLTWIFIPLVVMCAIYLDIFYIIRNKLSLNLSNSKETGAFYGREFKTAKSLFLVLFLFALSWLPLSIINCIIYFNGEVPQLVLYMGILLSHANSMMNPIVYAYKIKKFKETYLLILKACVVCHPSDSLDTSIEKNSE
# measurementProtocol: Displacement of [3H]NECA from human Adenosine A3 receptor expressed in HeLa cells at 1 uM after 180 mins
Numbers only, in %.

Guide cases for Activity, answers given:
compound	unit	Activity
CC1=C(C(=O)OC(C)C)C(c2cccs2)n2ccnc2N1 (racemic)	%	5
CCN1CC2=C(C1=O)C(c1ccoc1)NC(=O)N2 (racemic)	%	17
CC1=C(C(=O)OC(C)C)C(c2ccco2)CC(=O)N1 (racemic)	%	31
CCN1CC2=C(C1=O)C(c1ccco1)NC(=O)N2 (racemic)	%	20
CCOC(=O)C1=C(C)Nc2ncnn2C1c1cccs1 (racemic)	%	15
CCN1CC2=C(C1=O)C(c1cccs1)NC(=O)N2 (racemic)	%	21
CC1=C(C(=O)OC(C)C)C(c2ccoc2)NC(=O)N1 (stereo unspecified)	%	3
CCOC(=O)C1=C(C)Nc2ncnn2C1c1ccoc1 (racemic)	%	4

Give Activity for all compounds that follow.
1. CCN1CC2=C(C1=O)C(c1ccsc1)NC(=O)N2 (racemic)
2. CC1=C(C(=O)OC(C)C)C(c2ccsc2)n2c(nc3ccccc32)N1 (racemic)
3. CCOC(=O)C1=C(C)NC(=O)CC1c1ccsc1 (racemic)

1. 31
2. 21
3. 13
